Data provenance is patent US20150329642A1.

# measurement_target: T1, cMetECDHis (human, UniProt P08581 25-932, limits assumed, biotinylated in the cross-block ELISA of Example 17)
# T1 construct: Expressed in HEK-293F cells; also called soluble cMetECDHis; biotinylated cMetECDHis
# assay_text: cross-block ELISA; competitor 045
Each entry below carries its recorded residual binding, % of no competitor.
Don't forget the unit after the number, please.

Query string: Kindly indicate its recorded residual binding, % of no competitor. Item: anti-c-Met HuMab 098 (IgG1) (antibody, V domains shown, also called TH1016-098; PC1016-098) VH: QVQLVQSGAEVKKPGASVKVSCKASGYTFTNFGISWVRQAPGQGLEWMGWISAFNGHTDYSQKVQGRVTMTTDTSTSTAYMELRSLRSDDTAVFYCARSHYYGSGSPFDYWGQGTLVTVSS VL: DIQMTQSPSSLSASVGDRVTITCRASQGISNWLAWYQQKPEKAPKSLIYAASSLQSGVPSRFSGSGSGTDFTLTISSLQPEDFATYYCHQYKSYPWTFGQGTKVEIK
Result string: 96.7%

Query string: Note residual binding, % of no competitor for the binder shown: anti-c-Met HuMab 035 (IgG1) (antibody, V domains shown, also called P1016-035; TH1016-035-D09) VH: EVQLVQSGAEVKKPGESLKISCKGSGYSFTSYWIGWVRQMPGKGLEWMGIIYPGDSDTRYSPSFQGQVTISADKSISTAYLQWNSLKASDTAMYYCARQEITGEFDYWGQGTLVTVSS VL: AIQLTQSPSSLSASVGDRVTITCRASQGISSALAWYQQKPGKAPKLLIYDASSLESGVPSRFSGSGSGTDFTLTISSLQPEDFATYYCQQFNSYPMYTFGQGTKLEIK
Result string: 125%

Query string: Query residual binding, % of no competitor for anti-c-Met HuMab 006 (IgG1) (antibody, V domains shown, also called TH1016-006; PC1016-006) VH: QVQLVQSGAEVKKPGSSVKVSCKASGGTFSSFGIGWVRQAPGQGLEWMGRIFPILGTANYAQMFQGRVTITADKSTSTAYMELTSLRSEDTAVYYCARDVGYDSADAFDIWGQGTMVTVSS VL: DIQMTQSPSSLSASVGDRVTITCRASQGISSWLAWYQQKPEKAPKSLIYAASSLQSGVPSRFSGSGSGTDFTLTISSLQPEDFATYYCQQYNSYPPTFGQGTKVEIK
Result string: 114%
